Cited source for all entries: the supplement of paper PMC7877785

Record form. Attribute: self-splicing fitness (ln). Fill in for each entry.
assay.remarks: self-splicing fitness, log relative to wild type (ln ratio); higher = more splicing; Tetrahymena group I intron in knt gene, E. coli kanamycin selection, DiMSum; sequences stand for … in CUCUCU…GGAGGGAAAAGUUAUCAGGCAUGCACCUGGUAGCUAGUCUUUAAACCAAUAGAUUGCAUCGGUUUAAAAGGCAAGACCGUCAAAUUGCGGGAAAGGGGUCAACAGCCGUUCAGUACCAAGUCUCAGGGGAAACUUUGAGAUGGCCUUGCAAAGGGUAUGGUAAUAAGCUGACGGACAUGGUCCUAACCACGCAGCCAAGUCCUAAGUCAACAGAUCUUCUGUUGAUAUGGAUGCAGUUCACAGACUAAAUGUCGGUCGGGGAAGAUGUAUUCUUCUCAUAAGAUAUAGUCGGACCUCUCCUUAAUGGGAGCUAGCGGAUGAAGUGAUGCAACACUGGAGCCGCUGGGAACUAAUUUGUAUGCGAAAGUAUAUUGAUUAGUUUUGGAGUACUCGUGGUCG;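 also: selection with 25 µg/mL kanamycin versus none on LB agar overnight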
stated.conditions: 37 °C
Give bare numbers.

Below are worked cases with known answers.
primary.sequence	self-splicing fitness (ln)
GGAUAGCAAUAUUACGCGCU	-0.904
AGACAGCAAUAUUACGGUGA	-0.921
UUGGAGCAAUAUUACGUCUA	-2.49

Could you tell me self-splicing fitness (ln) for each of these sequences? They are listed below.
1. AAGGAGCAAUAUUACGAGUA
2. CCGCAGCAAUAUUACGCGUC

Response line:
[-3.21, -3.01]

###

assay.remarks: self-splicing fitness, log relative to wild type (ln ratio); higher = more splicing; Tetrahymena group I intron in knt gene, E. coli kanamycin selection, DiMSum; sequences stand for … in CUCUCU…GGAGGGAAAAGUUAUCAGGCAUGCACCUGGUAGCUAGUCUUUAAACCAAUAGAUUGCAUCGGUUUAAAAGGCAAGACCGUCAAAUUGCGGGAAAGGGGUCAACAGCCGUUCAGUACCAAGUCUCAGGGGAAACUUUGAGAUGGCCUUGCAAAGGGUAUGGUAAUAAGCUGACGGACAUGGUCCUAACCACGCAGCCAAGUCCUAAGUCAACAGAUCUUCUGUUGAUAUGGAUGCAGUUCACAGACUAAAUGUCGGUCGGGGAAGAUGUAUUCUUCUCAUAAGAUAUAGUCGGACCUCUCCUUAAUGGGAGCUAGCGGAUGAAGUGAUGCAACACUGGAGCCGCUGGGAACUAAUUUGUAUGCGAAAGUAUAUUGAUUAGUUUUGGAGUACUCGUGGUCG
stated.conditions: 30 °C
Entry flag: Yes if self-splicing fitness (ln) reaches -1; No if it does not.

Known results for sequences:
primary.sequence	class
UGUUAGCAAUAUUACGGCAC	No
UUUCAGCAAUAUUACGGAUC	No
UAAAAGCAAUAUUACGGCUG	Yes
GUGCAGCAAUAUUACGGCAC	Yes
UAUUAGCAAUAUUACGGCGC	No
ACCGAGCAAUAUUACGCUAU	No

Prompt line: Check this sequence for self-splicing fitness (ln) at or above -1: CCUCAGCAAUAUUACGUUGC
Response line: No

Prompt line: Check this sequence for self-splicing fitness (ln) at or above -1: AGUUAGCAAUAUUACGAUUC
Response line: No

Prompt line: Check this sequence for self-splicing fitness (ln) at or above -1: GCUUAGCAAUAUUACGUCAA
Response line: No
